The following compounds are shown together with reported Ratios of EC50 values MC ¼ values.
SYSTEM_TESTED: MC1R (Homo sapiens)
Sequence (Q01726 whole entry): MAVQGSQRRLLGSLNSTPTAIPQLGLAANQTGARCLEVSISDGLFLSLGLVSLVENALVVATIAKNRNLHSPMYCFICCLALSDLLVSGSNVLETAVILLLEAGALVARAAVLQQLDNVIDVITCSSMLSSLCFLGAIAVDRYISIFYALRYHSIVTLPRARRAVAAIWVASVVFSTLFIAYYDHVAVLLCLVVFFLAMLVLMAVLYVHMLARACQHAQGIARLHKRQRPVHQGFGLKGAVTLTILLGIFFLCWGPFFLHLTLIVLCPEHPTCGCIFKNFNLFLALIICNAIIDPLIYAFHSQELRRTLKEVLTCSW
RUN_DESCRIPTION: cAMP assay (β-galactosidase reporter, cAMP Hunter), MC1R
Format: cell-based
CONDITION: EC50(MC1R)/EC50(MC4R)
Bridge positions count the residues as written; N and C are the ends. Square brackets hold non-standard residues; d marks the D form. Peptide text beside a SMILES is read from it.

- COMPOUND: "CC(=O)N[C@@H](CCCNC(=N)N)C(=O)N[C@H]1CSSC[C@@H](C(N)=O)NC(=O)[C@H](Cc2c[nH]c3ccccc23)NC(=O)[C@H](CCCNC(=N)N)NC(=O)[C@@H](Cc2ccccc2)NC(=O)[C@H](Cc2ccc(O)cc2)NC(=O)[C@@H](C)NC1=O [Compound 11] (Ac-RC[dA]Y[dF]RWC-NH2; disulfide 2-8)"
  CMP: "="
  Ratios of EC50 values MC ¼: 6.67
- COMPOUND: "CC[C@@H](C)[C@H]1NC(=O)[C@@H](NC(=O)[C@H](CCCNC(=N)N)NC(C)=O)CSSC[C@@H](C(N)=O)NC(=O)[C@H](Cc2c[nH]c3ccccc23)NC(=O)[C@H](CCCNC(=N)N)NC(=O)[C@@H](Cc2ccccc2)NC(=O)[C@H](Cc2c[nH]cn2)NC1=O [Compound 2]"
  CMP: "="
  Ratios of EC50 values MC ¼: 0.69
- COMPOUND: "CC(=O)N[C@@H](CCCNC(=N)N)C(=O)N[C@H]1CSSC[C@@H](C(N)=O)NC(=O)[C@H](Cc2c[nH]c3ccccc23)NC(=O)[C@H](CCCNC(=N)N)NC(=O)[C@@H](Cc2ccccc2)NC(=O)[C@H](Cc2c[nH]cn2)NC(=O)[C@@H](C(C)C)NC1=O [Compound 4]"
  CMP: "="
  Ratios of EC50 values MC ¼: 0.93
- COMPOUND: "CC(=O)N[C@@H](CCCNC(=N)N)C(=O)N[C@H]1CSSC[C@@H](C(N)=O)NC(=O)[C@H](Cc2c[nH]c3ccccc23)NC(=O)[C@H](CCCNC(=N)N)NC(=O)[C@@H](Cc2ccccc2)NC(=O)[C@H](Cc2cn(C)cn2)NC(=O)[C@@H](C)NC1=O [Compound 6]"
  CMP: "="
  Ratios of EC50 values MC ¼: 40
- COMPOUND: "CC(=O)N[C@@H](CCCNC(=N)N)C(=O)N[C@H]1CSSC[C@@H](C(N)=O)NC(=O)[C@H](Cc2c[nH]c3ccccc23)NC(=O)[C@H](CCCNC(=N)N)NC(=O)[C@@H](Cc2ccccc2)NC(=O)[C@H](Cc2cncn2C)NC(=O)[C@@H](C)NC1=O [Compound 5]"
  CMP: "="
  Ratios of EC50 values MC ¼: 4
- COMPOUND: "CC(=O)N[C@@H](CCCNC(=N)N)C(=O)N[C@H]1CSSC[C@@H](C(N)=O)NC(=O)[C@H](Cc2c[nH]c3ccccc23)NC(=O)[C@H](CCCNC(=N)N)NC(=O)[C@@H](Cc2ccccc2)NC(=O)[C@H](CCCNC(=N)N)NC(=O)[C@@H](C)NC1=O [Compound 10] (Ac-RC[dA]R[dF]RWC-NH2; disulfide 2-8)"
  CMP: "="
  Ratios of EC50 values MC ¼: 2.31
- COMPOUND: "CC(=O)N[C@@H](CCC(=O)O)C(=O)N[C@H]1CSSC[C@@H](C(N)=O)NC(=O)[C@H](Cc2c[nH]c3ccccc23)NC(=O)[C@H](CCCNC(=N)N)NC(=O)[C@@H](Cc2ccccc2)NC(=O)[C@H](Cc2c[nH]cn2)NC(=O)[C@H](C)NC1=O [Compound 22] (Ac-ECAH[dF]RWC-NH2; disulfide 2-8)"
  CMP: ">"
  Ratios of EC50 values MC ¼: 3

meta.source: patent US10196425B2
